- test.method.notes: Microsomal stability, human liver microsomes (predicted hepatic clearance)
- details: predicted from in vitro microsomal stability data
measurement.name: Predicted Hepatic Clearance (Pred. Cl.)

Reported Predicted Hepatic Clearance (Pred. Cl.) for COCCn1c(Cc2cc(F)c(-c3cccc(OCc4ccc(C#N)cn4)n3)cc2F)nc2ccc(C(=O)O)cc21 : what is it?
1.83 mL/min/kg

Reported Predicted Hepatic Clearance (Pred. Cl.) for O=C(O)c1ccc2nc(Cc3cc(F)c(-c4ccnc(OCc5ccc(C(F)F)cc5F)n4)cc3F)n(CC34CC(CO3)C4)c2c1 : what is it?
1.83 mL/min/kg

Reported Predicted Hepatic Clearance (Pred. Cl.) for N#Cc1ccc(COc2nccc(-c3ccc(Cc4nc5c(F)cc(C(=O)O)cc5n4C[C@@H]4CCO4)cc3F)n2)c(F)c1 : what is it?
4.33 mL/min/kg

Reported Predicted Hepatic Clearance (Pred. Cl.) for COCCn1c(Cc2ccc(-c3cccc(OCc4ccc(C#N)cc4F)n3)cc2-c2ccc(C#N)cc2)nc2ccc(C(=O)O)cc21 : what is it?
6.83 mL/min/kg

Reported Predicted Hepatic Clearance (Pred. Cl.) for COCCn1c(Cc2ccc(-c3cccc(OCc4ccc(C#N)cc4F)n3)c(C)c2)nc2ccc(C(=O)O)cc21 [Example 21] : what is it?
<1.83 mL/min/kg

Reported Predicted Hepatic Clearance (Pred. Cl.) for COCCn1c(Cc2ccc(-c3cc(F)cc(OCc4ccc(C#N)cc4OC)n3)cc2F)nc2ccc(C(=O)O)cc21 : what is it?
9.17 mL/min/kg

Reported Predicted Hepatic Clearance (Pred. Cl.) for COCCn1c(Cn2cc(F)c(-c3cccc(OCc4ccc(C#N)cc4F)n3)cc2=O)nc2ccc(C(=O)O)cc21 : what is it?
3.17 mL/min/kg

Reported Predicted Hepatic Clearance (Pred. Cl.) for COCCn1c(Cc2ccc(-c3cccc(OCc4ccc(Cl)cc4F)n3)cc2F)nc2ccc(C(=O)O)cc21 : what is it?
3.17 mL/min/kg

Reported Predicted Hepatic Clearance (Pred. Cl.) for CO[C@@H]1CN(C(C)=O)C[C@@H]1n1c(Cc2cc(F)c(-c3cccc(OCc4ccc(C#N)cc4F)n3)cc2F)nc2ccc(C(=O)O)cc21 : what is it?
4.17 mL/min/kg

Reported Predicted Hepatic Clearance (Pred. Cl.) for COCCn1c(Cc2cc(F)c(-c3cccc(OCc4ccc(C#N)c(F)c4)n3)cc2F)nc2ccc(C(=O)O)cc21 : what is it?
2.83 mL/min/kg

Reported Predicted Hepatic Clearance (Pred. Cl.) for CO[C@H]1COC[C@H]1n1c(Cc2cc(F)c(-c3cccc(OCc4ccc(C#N)cc4F)n3)cc2F)nc2ccc(C(=O)O)cc21 (single isomer, unassigned) [Example 891] : what is it?
6.67 mL/min/kg

Reported Predicted Hepatic Clearance (Pred. Cl.) for N#Cc1ccc(COc2cccc(-c3ccc(Cc4nc5ccc(C(=O)O)cc5n4CCCF)c(F)c3)n2)c(F)c1 : what is it?
3.5 mL/min/kg

Reported Predicted Hepatic Clearance (Pred. Cl.) for N#Cc1ccc(COc2cccc(-c3cc(F)c(Cc4nc5c(F)cc(C(=O)O)cc5n4CCOC(F)F)cc3F)n2)c(F)c1 : what is it?
5.5 mL/min/kg

Reported Predicted Hepatic Clearance (Pred. Cl.) for N#Cc1ccc(COc2cccc(-c3cc(F)c(Cc4nc5ccc(C(=O)O)cc5n4CCNc4ccccn4)cc3F)n2)c(F)c1 : what is it?
11.2 mL/min/kg

Reported Predicted Hepatic Clearance (Pred. Cl.) for O=C(O)c1ccc2nc(Cc3ccc(-c4cccc(OCc5ccc(C(F)F)cc5F)n4)cc3F)n(C[C@@H]3CCO3)c2c1 : what is it?
1.83 mL/min/kg

Reported Predicted Hepatic Clearance (Pred. Cl.) for O=C(O)c1cc(F)c2nc(Cc3cc(F)c(-c4ccc(F)c(OCc5ccc(C(F)(F)F)cc5F)n4)cc3F)n(C[C@@H]3CCO3)c2c1 : what is it?
1.83 mL/min/kg

Reported Predicted Hepatic Clearance (Pred. Cl.) for N#Cc1ccc(COc2cccc(-c3cc(F)c(Cc4nc5ccc(C(=O)O)cc5n4CC45CCN(CC4)C5)cc3F)n2)c(F)c1 : what is it?
1.83 mL/min/kg

Reported Predicted Hepatic Clearance (Pred. Cl.) for COCCn1c(Cc2ccc(-c3cccc(OCc4ccc(C#N)cc4F)n3)c3c2COC3)nc2ccc(C(=O)O)cc21 : what is it?
1.83 mL/min/kg

Reported Predicted Hepatic Clearance (Pred. Cl.) for COCCn1c(Cc2ccc(-c3nc(OCc4ccc(C#N)cc4F)ccc3F)cc2F)nc2ccc(C(=O)O)cc21 : what is it?
5 mL/min/kg

Reported Predicted Hepatic Clearance (Pred. Cl.) for CC(=O)N1CC(F)(F)C[C@@H]1Cn1c(Cc2cc(F)c(-c3cccc(OCc4ccc(C#N)cc4F)n3)cc2F)nc2ccc(C(=O)O)cc21 : what is it?
6.33 mL/min/kg
